Measurement description: Pharmacokinetic properties in C57Bl/6 mice
Type: in vivo
Recorded conditions: mouse, plasma, 2 mg/kg IP
Listed compounds paired with reported AUC(0-inf)
Observation type: AUC(0-inf) (ng·h/mL)

1) CO[C@H]1C[C@@H]2CC[C@@H](C)[C@@](O)(O2)C(=O)C(=O)N2CCCC[C@H]2C(=O)O[C@H]([C@H](C)C[C@@H]2CC[C@@H](O)[C@H](OC)C2)CC(=O)[C@H](C)/C=C(\C)[C@@H](O)[C@@H](OC)C(=O)[C@H](C)C[C@H](C)/C=C/C=C/C=C/1C = 2540
2) CO[C@@H]1C[C@H](C[C@@H](C)[C@@H]2CC(=O)[C@H](C)/C=C(\C)[C@@H](O)[C@@H](OC)C(=O)[C@H](C)C[C@H](C)/C=C/C=C/C=C(\C)[C@@H](OCCOCCOCCO)C[C@@H]3CC[C@@H](C)[C@@](O)(O3)C(=O)C(=O)N3CCCC[C@H]3C(=O)O2)CC[C@H]1O = 16900

###

Measurement description: Solubility in 100 mM phosphate buffer (pH 7.4)
Type: physicochemical
Recorded conditions: pH 7.4, aqueous buffer
Observation type: solubility

1. CO[C@@H]1C[C@H](C[C@@H](C)[C@@H]2CC(=O)[C@H](C)/C=C(\C)[C@@H](O)[C@@H](OC)C(=O)[C@H](C)C[C@H](C)/C=C/C=C/C=C(\C)C(OCCO)C[C@@H]3CC[C@@H](C)[C@@](O)(O3)C(=O)C(=O)N3CCCC[C@H]3C(=O)O2)CC[C@H]1O (stereo partly shown) = 30 to 60 µM
2. COCCOCCOCCOC1C[C@@H]2CC[C@@H](C)[C@@](O)(O2)C(=O)C(=O)N2CCCC[C@H]2C(=O)O[C@H]([C@H](C)C[C@@H]2CC[C@@H](O)[C@H](OC)C2)CC(=O)[C@H](C)/C=C(\C)[C@@H](O)[C@@H](OC)C(=O)[C@H](C)C[C@H](C)/C=C/C=C/C=C/1C (stereo partly shown) = 30 to 60 µM
3. CO[C@@H]1C[C@H](C[C@@H](C)[C@@H]2CC(=O)[C@H](C)/C=C(\C)[C@@H](O)[C@@H](OC)C(=O)[C@H](C)C[C@H](C)/C=C/C=C/C=C(\C)[C@H](OCCOCCOCCO)C[C@@H]3CC[C@@H](C)[C@@](O)(O3)C(=O)C(=O)N3CCCC[C@H]3C(=O)O2)CC[C@H]1O = > 60 µM
4. CO[C@@H]1C[C@H](C[C@@H](C)[C@@H]2CC(=O)[C@H](C)/C=C(\C)[C@@H](O)[C@@H](OC)C(=O)[C@H](C)C[C@H](C)/C=C/C=C/C=C(\C)C(OCCOCCOCCOCCOCCOCCO)C[C@@H]3CC[C@@H](C)[C@@](O)(O3)C(=O)C(=O)N3CCCC[C@H]3C(=O)O2)CC[C@H]1O (stereo partly shown) = > 60 µM

###

Measurement description: Pharmacokinetic properties in C57Bl/6 mice
Format: in vivo
Recorded conditions: mouse, plasma, 1 mg/kg IV
Observation type: AUC(0-inf) (ng·h/mL)

1) CO[C@@H]1C[C@H](C[C@@H](C)[C@@H]2CC(=O)[C@H](C)/C=C(\C)[C@@H](O)[C@@H](OC)C(=O)[C@H](C)C[C@H](C)/C=C/C=C/C=C(\C)[C@@H](OCCOCCOCCO)C[C@@H]3CC[C@@H](C)[C@@](O)(O3)C(=O)C(=O)N3CCCC[C@H]3C(=O)O2)CC[C@H]1O = 18400
2) CO[C@H]1C[C@@H]2CC[C@@H](C)[C@@](O)(O2)C(=O)C(=O)N2CCCC[C@H]2C(=O)O[C@H]([C@H](C)C[C@@H]2CC[C@@H](O)[C@H](OC)C2)CC(=O)[C@H](C)/C=C(\C)[C@@H](O)[C@@H](OC)C(=O)[C@H](C)C[C@H](C)/C=C/C=C/C=C/1C = 3630
